tested target: HIV Env, isolate CAP45.2.00.G3 (HIV)
experimental protocol: cell-based or functional assay
property label: IC80 (µg/ml) with constrains (µg/mL)
Dear colleague, please return just the value in µg/mL, with no unit written.

Task: I have this binder here, ePGDM9 (antibody, V domains shown) VH: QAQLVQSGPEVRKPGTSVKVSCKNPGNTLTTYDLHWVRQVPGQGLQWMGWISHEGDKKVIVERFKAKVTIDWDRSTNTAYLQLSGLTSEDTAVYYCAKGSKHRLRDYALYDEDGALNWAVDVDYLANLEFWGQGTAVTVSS VL: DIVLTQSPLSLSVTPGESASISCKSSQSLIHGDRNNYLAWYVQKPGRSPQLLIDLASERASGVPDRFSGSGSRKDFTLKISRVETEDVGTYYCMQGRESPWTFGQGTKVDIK , and I need its recorded IC80 (µg/ml) with constrains.
Output: 0.005

Task: I have this binder here, PGDM1400 (antibody, V domains shown) VH: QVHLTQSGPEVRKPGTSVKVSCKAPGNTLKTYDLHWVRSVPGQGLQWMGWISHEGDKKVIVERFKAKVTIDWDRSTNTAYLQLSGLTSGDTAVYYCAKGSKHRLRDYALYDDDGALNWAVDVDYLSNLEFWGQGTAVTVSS VL: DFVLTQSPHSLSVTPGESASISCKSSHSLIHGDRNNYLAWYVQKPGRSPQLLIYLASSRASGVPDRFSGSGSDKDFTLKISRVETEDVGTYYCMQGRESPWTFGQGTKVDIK , and I need its recorded IC80 (µg/ml) with constrains.
Output: 0.005

Task: I have this binder here, ePGDM5 (antibody, V domains shown) VH: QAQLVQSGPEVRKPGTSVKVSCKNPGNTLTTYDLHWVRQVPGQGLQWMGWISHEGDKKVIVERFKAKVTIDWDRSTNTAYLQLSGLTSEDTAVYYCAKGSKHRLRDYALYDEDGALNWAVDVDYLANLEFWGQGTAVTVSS VL: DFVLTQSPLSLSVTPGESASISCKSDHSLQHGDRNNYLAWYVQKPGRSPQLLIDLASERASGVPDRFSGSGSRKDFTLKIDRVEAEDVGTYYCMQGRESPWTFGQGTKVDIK , and I need its recorded IC80 (µg/ml) with constrains.
Output: 0.004

Task: I have this binder here, ePGDM13 (antibody, V domains shown) VH: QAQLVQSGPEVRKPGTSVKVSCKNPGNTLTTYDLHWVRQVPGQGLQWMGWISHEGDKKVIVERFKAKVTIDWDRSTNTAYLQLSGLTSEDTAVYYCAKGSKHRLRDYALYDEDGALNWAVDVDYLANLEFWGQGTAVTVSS VL: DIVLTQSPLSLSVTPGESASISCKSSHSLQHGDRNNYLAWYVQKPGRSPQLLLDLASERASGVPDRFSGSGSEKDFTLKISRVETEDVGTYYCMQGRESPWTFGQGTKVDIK , and I need its recorded IC80 (µg/ml) with constrains.
Output: 0.007
